- assayed_system: human GPVI extracellular region-human Fc fusion protein (hGPVI-hFc) (human)
- Sequence (chain, as listed by the source limits assumed): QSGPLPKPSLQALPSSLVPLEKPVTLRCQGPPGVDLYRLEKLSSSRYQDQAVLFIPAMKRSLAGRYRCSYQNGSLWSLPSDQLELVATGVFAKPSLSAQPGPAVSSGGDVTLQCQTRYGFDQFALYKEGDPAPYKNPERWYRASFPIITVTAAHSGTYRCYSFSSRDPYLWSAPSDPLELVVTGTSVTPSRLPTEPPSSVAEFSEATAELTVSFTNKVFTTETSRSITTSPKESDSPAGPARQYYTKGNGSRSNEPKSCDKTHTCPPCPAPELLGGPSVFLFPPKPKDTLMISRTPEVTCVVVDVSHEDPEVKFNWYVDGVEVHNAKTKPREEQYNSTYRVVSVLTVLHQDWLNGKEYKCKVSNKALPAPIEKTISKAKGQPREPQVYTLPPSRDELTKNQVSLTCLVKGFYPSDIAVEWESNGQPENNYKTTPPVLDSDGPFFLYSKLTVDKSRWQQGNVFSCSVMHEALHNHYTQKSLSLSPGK
- assay_name: SPR (BIACORE3000) as in Example 5
readout_type: KD (Relative value) against F1232-37-2 (relative to KD of F1232-37-2)

Reported KD (Relative value) against F1232-37-2 (relative to KD of F1232-37-2) for F1257-3-1 (antibody, V domains shown) VH: QVTLKESGPGMLQPSKTLSLTCSFSGFSLSTSGMVVSWIRQPSGKSLEWLAAIDWDGDKYYNPSLKSRLTVSKDTSNTQVFLKISSVDIADTATYYCARTPYYGYKEAYYFDYWGQGVKVTVSS VL: DIQMTQSPASLSASLEEIVTITCKASRAIDDYLSWYQQKPGKSPQLLIYDATSLADGVPSRFSGSRSGTQYSLKISRPQVDDSGIYYCLQSYSTPWTFGGGTKLDLKR was 0.00298

Reported KD (Relative value) against F1232-37-2 (relative to KD of F1232-37-2) for F1245-6-2 (antibody, V domains shown) VH: QVQLQQPGAELVKPGASVKLSCKASGYTFTSYWMHWVKQRPGQGLEWIGMIHPNSGSTNYNEKFKSKATLTVDKSSSTAYMQLSSLTSEDSAVYYCARGGVTPVAYWGQGTLVTVSA VL: SIVMTQTPKFLLVSAGDRVTITCKASQSVSNDVAWYQQKPGQSPKLLIYYASNRYTGVPYRFTGSGYGTDFTFTISTVQAEDLAVYFCQQDYSSPWTFGGGTKLEIK was 0.122

Reported KD (Relative value) against F1232-37-2 (relative to KD of F1232-37-2) for F1249-18-2 (antibody, V domains shown) VH: QVQLQQPGAELVKPGASVKLSCKASGYTFTSYWMHWLKQRPGQGLEWIGMIHPNSDITNYNEKFKNKATLTVDKSSSTAYMQLSSLTSEDSAVYYCARSGDYYAMDYWGQGTSVTVSS VL: SIVMTQTPKFLLVSAGDRVTITCKASQSVSNDVAWYQQKPGQSPKLLIYYASNRYTGVPDRFTGSGYGTDFTFTISTVQAEDLAVYFCQQDYSSPPTFGGGTKLEIKR was 0.00103
